biological target: UniProtKB P37231; assay: Full-length PPAR transcriptional activation assay (PPRE::Luciferase reporter, HEK293 cells), PPAR gamma; conditions: transfected HEK293 cells (PPARγ2 plasmid), species of receptor not given
pEC50: −log10 of the molar value.

compound	pEC50
CCc1cnc(N(CCCC2CCc3ccc(CC(=O)O)cc3O2)Cc2ccc(OC(F)(F)F)cc2)nc1 (centres unmarked)	≥ 6.00
CCc1cnc(N(CCCN2CCc3ccc(CC(=O)O)cc3C2)Cc2ccc(C(F)(F)F)cc2C(F)(F)F)nc1	≥ 6.00
CCc1cnc(N(CCCN2CCc3ccc(CC(=O)O)cc3C2)c2ccc(C(F)(F)F)cc2)nc1	< 6.00
CCc1cnc(N(CCCC2Oc3cccc(CC(=O)O)c3CC2C)Cc2ccc(OC(F)(F)F)cc2)nc1 (single isomer, unassigned) [Example 19A]	≥ 6.00
CCc1cnc(N(CCCC2Oc3cc(CC(=O)O)ccc3CC2C)Cc2ccc(OC(F)(F)F)cc2)nc1 (single isomer, unassigned) [Example 18D]	≥ 6.00
CCc1cnc(N(CCN2CCc3ccc(CC(=O)O)cc3C2)Cc2ccc(OC(F)(F)F)cc2)nc1	≥ 6.00
CCc1cnc(N(CCCC2Oc3cccc(CC(=O)O)c3CC2C)Cc2ccc(OC(F)(F)F)cc2)nc1 (single isomer, unassigned) [Example 19C]	≥ 6.00
CCc1cnc(N(CCCC2CCc3c(CC(=O)O)cccc3O2)CCc2ccc(OC(F)(F)F)cc2)nc1 (centres unmarked)	≥ 6.00
CCc1cnc(N(CCC2CCc3c(CC(=O)O)cccc3O2)Cc2ccc(C(F)(F)F)cc2)nc1 (centres unmarked)	≥ 6.00
CCc1cnc(N(CCCC2Oc3cc(CC(=O)O)ccc3CC2C)Cc2ccc(OC(F)(F)F)cc2)nc1 (single isomer, unassigned) [Example 18C]	< 6.00
CCc1cnc(N(CCCN2CCc3ccc(CC(=O)O)cc3C2)CCc2ccc(C(F)(F)F)cc2)nc1	< 6.00
CCc1cnc(N(CCCC2CCc3ccc(CC(=O)O)cc3O2)CCc2ccc(OC(F)(F)F)cc2)nc1 (centres unmarked)	≥ 6.00
CCc1cnc(N(CCCC2Oc3cc(CC(=O)O)ccc3CC2C)Cc2ccc(OC(F)(F)F)cc2)nc1 (single isomer, unassigned) [Example 18B]	≥ 6.00
CCc1cnc(N(CCC2CCc3ccc(CC(=O)O)cc3O2)Cc2ccc(C(F)(F)F)cc2)nc1 (centres unmarked)	≥ 6.00

====

molecular target: PPAR gamma (Homo sapiens, UniProt P37231); test: Full-length PPAR transcriptional activation assay (PPRE::Luciferase reporter, HEK293 cells), PPAR gamma; details: transfected HEK293 cells (PPARγ2 plasmid), species of receptor not given
Sequence (P37231 whole entry, species assumed): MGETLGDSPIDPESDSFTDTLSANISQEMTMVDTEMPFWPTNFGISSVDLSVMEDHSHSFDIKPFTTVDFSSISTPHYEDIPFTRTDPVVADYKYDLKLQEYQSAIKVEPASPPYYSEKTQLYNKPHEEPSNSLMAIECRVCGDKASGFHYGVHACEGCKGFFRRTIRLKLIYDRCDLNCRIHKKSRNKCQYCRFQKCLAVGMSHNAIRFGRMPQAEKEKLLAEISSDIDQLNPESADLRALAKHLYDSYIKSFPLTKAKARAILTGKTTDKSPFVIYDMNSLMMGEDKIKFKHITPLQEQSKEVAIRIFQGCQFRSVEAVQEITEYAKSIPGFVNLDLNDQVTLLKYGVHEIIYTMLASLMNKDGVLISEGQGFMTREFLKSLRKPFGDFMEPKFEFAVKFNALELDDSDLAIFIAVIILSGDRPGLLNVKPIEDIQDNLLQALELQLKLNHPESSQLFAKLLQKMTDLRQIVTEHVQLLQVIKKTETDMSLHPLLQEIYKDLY

compound	EC50
CCc1cnc(N(CCCC2Oc3cccc(CC(=O)O)c3CC2C)Cc2ccc(OC(F)(F)F)cc2)nc1 (single isomer, unassigned) [Example 19B]	≤ 1 µM
CCc1cnc(N(CCCCN2CCc3ccc(CC(=O)O)cc3C2)c2ccc(OC(F)(F)F)cc2)nc1 [Example 5]	> 1 µM
CCc1cnc(N(CCCC2CCc3c(CC(=O)O)cccc3O2)Cc2ccc(OC(F)(F)F)cc2)nc1 (stereo not shown) [Example 13]	≤ 1 µM
CCc1cnc(N(CCc2ccc(C(F)(F)F)cc2)CCN2CCc3ccc(CC(=O)O)cc3C2)nc1 [Example 8]	> 1 µM
CCc1cnc(N(CCCC2CCc3c(CC(=O)O)cccc3O2)Cc2ccc(C(F)(F)F)cc2)nc1 (stereo not shown) [Example 11]	≤ 1 µM
CCc1cnc(N(CCCC2Oc3cc(CC(=O)O)ccc3CC2C)Cc2ccc(OC(F)(F)F)cc2)nc1 (single isomer, unassigned) [Example 18A]	≤ 1 µM
CCc1cnc(N(CCCN2CCc3ccc(CC(=O)O)cc3C2)Cc2ccc(OC(F)(F)F)cc2)nc1 [Example 1]	≤ 1 µM

====

Quick list: EC50 per entry.
target: UniProt:P37231; assay: Full-length PPAR transcriptional activation assay (PPRE::Luciferase reporter, HEK293 cells), PPAR gamma; conditions: transfected HEK293 cells (PPARγ2 plasmid), species of receptor not given
measured_metric: EC50

compound	assayed_system	result
CCc1cnc(N(CCCC2Oc3cccc(CC(=O)O)c3CC2C)Cc2ccc(OC(F)(F)F)cc2)nc1 (single isomer, unassigned) [Example 19D]	UniProt:P37231	≤ 1000 nM
CCc1cnc(N(CCN2CCc3ccc(CC(=O)O)cc3C2)Cc2ccc(C(F)(F)F)cc2C(F)(F)F)nc1	UniProt:P37231	≤ 1000 nM
CCc1cnc(N(CCCC2CCc3ccc(CC(=O)O)cc3O2)Cc2ccc(C(F)(F)F)cc2)nc1 (stereo not shown)	UniProt:P37231	≤ 1000 nM
CCc1cnc(N(CCCN2CCc3ccc(CC(=O)O)cc3C2)c2ccc(OC(F)(F)F)cc2)nc1	UniProt:P37231	> 1000 nM

====

Quick list: pEC50 per entry.
biological target: PPAR alpha (Homo sapiens, UniProt Q07869); assay: Full-length PPAR transcriptional activation assay (PPRE::Luciferase reporter, HEK293 cells), PPAR alpha; conditions: transfected HEK293 cells, species of receptor not given
Sequence (Q07869 whole entry, species assumed): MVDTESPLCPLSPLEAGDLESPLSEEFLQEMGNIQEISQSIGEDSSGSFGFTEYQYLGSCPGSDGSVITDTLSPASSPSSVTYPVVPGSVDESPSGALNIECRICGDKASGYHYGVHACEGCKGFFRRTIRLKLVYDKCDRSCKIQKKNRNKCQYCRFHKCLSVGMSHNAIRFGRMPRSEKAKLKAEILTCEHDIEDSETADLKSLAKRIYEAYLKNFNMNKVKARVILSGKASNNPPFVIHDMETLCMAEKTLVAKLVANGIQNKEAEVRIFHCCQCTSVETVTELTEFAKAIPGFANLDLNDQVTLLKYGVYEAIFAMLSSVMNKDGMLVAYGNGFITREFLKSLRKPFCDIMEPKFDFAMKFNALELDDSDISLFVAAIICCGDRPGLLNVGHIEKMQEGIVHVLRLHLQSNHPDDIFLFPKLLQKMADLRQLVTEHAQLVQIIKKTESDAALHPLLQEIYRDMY
pEC50: −log10 of the molar value.

compound	pEC50
CCc1cnc(N(CCCC2Oc3cc(CC(=O)O)ccc3CC2C)Cc2ccc(OC(F)(F)F)cc2)nc1 (single isomer, unassigned) [Example 18C]	≥ 6.00
CCc1cnc(N(CCCC2Oc3cc(CC(=O)O)ccc3CC2C)Cc2ccc(OC(F)(F)F)cc2)nc1 (single isomer, unassigned) [Example 18D]	< 6.00
CCc1cnc(N(CCN2CCc3ccc(CC(=O)O)cc3C2)Cc2ccc(OC(F)(F)F)cc2)nc1 [Example 3]	< 6.00
